Reference source for all entries: ChEMBL document CHEMBL2177069

- System: SF-268
- TEST_DESCRIPTION: Cytotoxicity against human SF268 cells
- Assay type: functional
READOUT_LABEL: GI50 (nM)

COMPOUND	READOUT_LABEL	ENDPOINT_VALUE
CC1=C([Se]CC(OC(=O)[C@@H](CO)NC(=O)OC(C)(C)C)C(=O)NC(C)(C)C)C(=O)c2ccccc2C1=O (some centres undefined)	GI50	1910
CC1=C([Se]CC(OC(=O)[C@@H](CSSC(C)(C)C)NC(=O)C(C)(C)C)C(=O)NCCCCCC(=O)OCc2ccccc2)C(=O)c2ccccc2C1=O (some centres undefined)	GI50	1910
CC1=C(SCCC(=O)OC(C[Se]C2=C(C)C(=O)c3ccccc3C2=O)C(=O)NCCCCCC(=O)OCc2ccccc2)C(=O)c2ccccc2C1=O (centres undefined)	GI50	7410
CC1=C([Se]CC(OC(=O)[C@@H](CO)NC(=O)OC(C)(C)C)C(=O)NCCCCCC(=O)OCc2ccccc2)C(=O)c2ccccc2C1=O (some centres undefined)	GI50	1860
